Below, each of the compounds is paired with its reported Hepatotoxicity (severe hepatitis) value.
Conditions: human

compound	Hepatotoxicity (severe hepatitis)
COc1ccc(Cc2nccc3cc(OC)c(OC)cc23)cc1OC [PAPAVERINE]	0
CNC(=O)c1cccc2c(Nc3ccc(NS(C)(=O)=O)cc3OC)c3cccc(C)c3nc12 [ASULACRINE]	0
CC1(C)S[C@@H]2[C@H](NC(=O)[C@H](N)c3ccc(O)cc3)C(=O)N2[C@H]1C(=O)O.O=C(O)[C@H]1/C(=C/CO)O[C@@H]2CC(=O)N21	8
CCCC1C(=O)N2C(N(C)C)=Nc3ccc(C)cc3N2C1=O (stereo not drawn) [APAZONE]	0
N=C(N)NCCCCCCC(=O)NC(O)C(=O)NCCCCNCCCN (stereo not drawn)	0
CC(=O)[C@@]1(O)CC[C@H]2[C@@H]3CCC4=CC(=O)CC[C@]4(C)[C@H]3CC[C@@]21C [HYDROXYPROGESTERONE]	0
CCCCCCCCNC(C)C(O)c1ccc(SC(C)C)cc1 (stereo not drawn) [SULOCTIDIL]	2
CO[C@H]1O[C@@H]2O[C@@]3(C)CC[C@H]4[C@H](C)CC[C@@H]([C@H]1C)[C@@]24OO3	0

----------
Details: human
Hepatotoxicity (cytolytic) reference
attribute measured: Hepatotoxicity (cytolytic)

compound	attribute measured	readout number
Nc1cc(-c2ccncc2)c[nH]c1=O [INAMRINONE]	Hepatotoxicity (cytolytic)	2
COc1ccccc1OCCNCC(O)COc1cccc2[nH]c3ccccc3c12 (centres undefined) [CARVEDILOL]	Hepatotoxicity (cytolytic)	1
CN(C)[C@@H]1C(O)=C(C(N)=O)C(=O)[C@@]2(O)C(O)=C3C(=O)c4c(O)ccc(Cl)c4[C@@](C)(O)[C@H]3C[C@@H]12 [CHLORTETRACYCLINE]	Hepatotoxicity (cytolytic)	1
CC(=O)OCC(CCn1cnc2cnc(N)nc21)COC(C)=O [FAMCICLOVIR]	Hepatotoxicity (cytolytic)	0

----------
Conditions: human, serum
Each entry below lists one item and its recorded Hepatotoxicity (acute) value.

compound	Hepatotoxicity (acute)
CC(C)/N=c1\cc2n(-c3ccc(Cl)cc3)c3ccccc3nc-2cc1Nc1ccc(Cl)cc1	1
CC(N)C(=O)OC(C)(C)Cc1ccc(Cl)cc1 (stereo not given) [ALAPROCLATE]	0
CN(C)CCCN1c2ccccc2CCc2ccc(Cl)cc21	6
CC(Cc1ccccc1)(NC(=O)CN)c1ccccc1 (stereo not given) [REMACEMIDE]	0
COc1cnc(NS(=O)(=O)c2ccc(N)cc2)nc1	2
CN1C(CSCC(F)(F)F)Nc2cc(Cl)c(S(N)(=O)=O)cc2S1(=O)=O (stereo not given) [POLYTHIAZIDE]	1
COc1cc(NCc2ccc3nc(N)nc(N)c3c2C)cc(OC)c1OC [TRIMETREXATE]	1
CN(C)CCN(Cc1ccccc1)c1ccccn1	1
Cc1cc2c(s1)Nc1ccccc1N=C2N1CCN(C)CC1	2
Fc1ccc(C(c2ccc(F)cc2)N2CCN(C/C=C/c3ccccc3)CC2)cc1	0
CC(C(=O)O)c1cccc(Oc2ccccc2)c1 (stereo not given)	3
CC(C)[C@](O)(C(=O)OCC1=CC[N+]2([O-])CC[C@@H](O)[C@@H]12)[C@H](C)O (stereo not given in full) [INDICINE N-OXIDE]	6
Cc1nc(C)c2c(n1)N(Cc1ccc(-c3ccccc3-c3nnn[nH]3)cc1)C(=O)CC2	0
CC(C)[C@@H](CC[C@@H](C)[C@H]1CC[C@H]2[C@@H]3[C@H](O)C[C@H]4C[C@@H](NCCCNCCCCN)CC[C@]4(C)[C@H]3CC[C@]12C)OS(=O)(=O)O	2
CC(C)c1nc(N(C)S(C)(=O)=O)nc(-c2ccc(F)cc2)c1/C=C/[C@@H](O)C[C@@H](O)CC(=O)O	1
CN[C@H](CC(C)C)C(=O)N[C@H]1C(=O)N[C@@H](CC(N)=O)C(=O)N[C@H]2C(=O)N[C@H]3C(=O)N[C@H](C(=O)N[C@H](C(=O)O)c4cc(O)cc(O)c4-c4cc3ccc4O)[C@H](O)c3ccc(c(Cl)c3)Oc3cc2cc(c3O[C@@H]2O[C@H](CO)[C@@H](O)[C@H](O)[C@H]2O[C@H]2C[C@](C)(N)[C@H](O)[C@H](C)O2)Oc2ccc(cc2Cl)[C@H]1O	1
C[C@@H]1C[C@H]2[C@@H]3CCC4=CC(=O)C=C[C@]4(C)C3=CC[C@]2(C)[C@H]1C(=O)CN1CCN(c2cc(N3CCCC3)nc(N3CCCC3)n2)CC1	0
COc1ccc([C@@H]2Sc3cc(Cl)ccc3N(CCN(C)C)C(=O)[C@@H]2OC(C)=O)cc1	0
CC(C)(Sc1cc(C(C)(C)C)c(O)c(C(C)(C)C)c1)Sc1cc(C(C)(C)C)c(O)c(C(C)(C)C)c1	0
COc1cc(C(=O)NS(=O)(=O)c2ccccc2C)ccc1Cc1cn(C)c2ccc(NC(=O)OC3CCCC3)cc12	8
Cc1ccc(O)c([C@H](CCN(C(C)C)C(C)C)c2ccccc2)c1	1
CS(=O)(=O)c1ccc(C2=C(c3ccccc3)C(=O)OC2)cc1	2
CN1CCCN(C(c2ccccc2)c2ccc(Cl)cc2)CC1 (stereo not given)	1
CO/N=C(\C(=O)N[C@@H]1C(=O)N2C(C(=O)O)=C(CSc3nc(=O)c(=O)[nH]n3C)CS[C@H]12)c1csc(N)n1	7
N#C[C@H](O[C@@H]1O[C@H](CO[C@@H]2O[C@H](CO)[C@@H](O)[C@H](O)[C@H]2O)[C@@H](O)[C@H](O)[C@H]1O)c1ccccc1	0
CC(=O)/N=c1/sc(S(N)(=O)=O)nn1C [METHAZOLAMIDE]	1
CC(C)C[C@H]1C(=O)N2CCC[C@H]2[C@]2(O)O[C@](NC(=O)[C@@H]3C=C4c5cccc6[nH]c(Br)c(c56)C[C@H]4N(C)C3)(C(C)C)C(=O)N12	2
CC(=O)Oc1ccc(C(=C2CCCCC2)c2ccc(OC(C)=O)cc2)cc1	5
COc1cc(C)c(/C=C/C(C)=C/C=C/C(C)=C/C(=O)O)c(C)c1C	12
CCc1[nH]c(=O)[nH]c1C(=O)c1ccncc1	1

src = ChEMBL document CHEMBL3137667
